Reported growth is given for each of the following compounds.
tested on: HCT-15 colon; assay: NCI-60 one-dose screen, 48 h (100 = growth as untreated, 0 = no growth, -100 = all killed); settings: 10 µM unless noted
About 83,000 compounds went through this panel and 20% of them were active in at least one assay; those are over-represented in the sample as a whole. Activity calls are given as the source filed them. How the source made its calls: active means growth percent below 10; inactive means the rest.

// known answers, use as guide
COc1ccc(-c2csc(C3=C(O)CN(CCCN4CCCC4=O)C3=N)n2)cc1OC: 94% (inactive)
COc1ccc(N=Nc2ccc(O)c(=O)cc2)cc1: 16.4% (inactive)
O=c1c2cc(F)ccc2sc2c(NCCCN3CCCC3)nc3ccccc3c12: 7.59% (active)
Cc1c(C(=O)OC(=NC2CCCCC2)NC2CCCCC2)sc2c1c(=O)nc1c(C#N)n[nH]n12: 114% (inactive)

Fill in growth for record "CC(C)C(=O)Nc1n[nH]c2cc(-c3cccc(NS(=O)(=O)C4CC4)c3)ccc12"
84.3% (inactive)

src = PubChem BioAssay (NCI)
